For each entry below, report its Inhibition value.
- Test system: Plasmodium falciparum
- TEST SUMMARY: GSK_TCMDC: Inhibition of Plasmodium falciparum 3D7 in whole red blood cells, using parasite LDH activity as an index of growth. Test compounds present at 2uM
- Assay type: functional
Please state the figure in %; there is no need to write the unit.

For reference, reported Inhibition for `CCCN(CCC)C(=O)c1cc(C(=O)N[C@@H](Cc2ccccc2)[C@H](O)CNCc2cccc(C(F)(F)F)c2)cc(N2CCCCS2(=O)=O)c1` stands at 99

For reference, reported Inhibition for `Clc1ccc(CNc2nc(NCCc3c[nH]cn3)nc(NC3CCCCC3)n2)cc1` stands at 100

For reference, reported Inhibition for `FC(F)(F)c1ccc2[nH]c(-c3ccc(-c4ccc(CNCCN5CCNCC5)cc4)cc3)nc2c1.O=C(O)C(F)(F)F` stands at 92

For reference, reported Inhibition for `Cc1cccc2nc(-c3ccc(-c4ccc(CNCc5ccccc5)cc4)s3)[nH]c12.O=C(O)C(F)(F)F` stands at 100

For reference, reported Inhibition for O=C(Nc1ccc(Cl)c(Cl)c1)N[C@H]1CCN(CCCCCNC(=O)C2CC2c2ccc(Cl)c(Cl)c2)C1 (some centres undefined) stands at 93

For reference, reported Inhibition for `COc1ccc(NC(=O)c2ccc(Br)c(C)c2)cc1N1CCN(Cc2ccccc2)CC1.O=C(O)C(=O)O` stands at 95

For reference, reported Inhibition for `Cc1c(Cl)cccc1S(=O)(=O)Nc1cccc(CCN2CCC(N3CCCCC3)CC2)c1` stands at 100

For reference, reported Inhibition for `CN1CCC(NCc2cccc(-c3ccc(S(=O)(=O)NCCN4CCCC4)s3)c2)CC1.O=C(O)C(F)(F)F` stands at 91

For reference, reported Inhibition for `CCCCCCN1CCN(Cc2cccc(NC(=O)c3cc4ccccc4s3)c2)CC1.O=C(O)C(F)(F)F` stands at 93

For reference, reported Inhibition for Cn1cncc1C(=O)NC1CCN(c2ccnc(Nc3ccc(F)cc3)n2)C1 (centres undefined) stands at 97

For reference, reported Inhibition for Cc1ccc(NC(=O)c2ccc(NCCCN3CC(C)CC(C)C3)c([N+](=O)[O-])c2)cc1F (centres undefined) stands at 100

For reference, reported Inhibition for `Cc1cc(N2CCOCC2)nc(Nc2ccc(NC(=O)Nc3ccc(F)cc3)cc2)n1` stands at 100

For reference, reported Inhibition for `CCn1cc2c3c(cc(C(=O)N[C@@H](Cc4ccccc4)[C@H](O)CNCc4cccc(OC)c4)cc31)N(C)S(=O)(=O)CC2` stands at 99

For reference, reported Inhibition for `CON=Cc1ccn(-c2ccc(O)c3c2C[C@H]2C[C@H]4[C@H](N(C)C)C(O)=C(C(N)=O)C(=O)[C@@]4(O)C(O)=C2C3=O)c1.O=S(=O)(O)O` stands at 96

For reference, reported Inhibition for `Nc1nc(N)c2c(ccc3c2ccn3Cc2ccc(Cl)cc2)n1` stands at 100

For reference, reported Inhibition for `CCN(CCCN1CCCCC1)c1cc(C)nc(Nc2ccc(C)cc2Br)n1.O=C(O)C(F)(F)F` stands at 95

For reference, reported Inhibition for CCCCCOc1ccc(C(O)C(CCC(CN2CCCCCC2)C(O)c2ccc(OCCCCC)cc2)CN2CCCCCC2)cc1.Cl (centres undefined) stands at 99

For reference, reported Inhibition for `CN1CCC(c2c[nH]c3ccc(NC(=O)Nc4ccc(-c5ccncc5)c(Cl)c4Cl)cc23)CC1` stands at 100

For reference, reported Inhibition for CCCCCN1CCCC1CNS(=O)(=O)c1cccc(C(=O)Nc2cccc(C#N)c2)c1.O=C(O)C(F)(F)F (centres undefined) stands at 90

For reference, reported Inhibition for `O=C(/C=C/c1ccc(Cl)c(Cl)c1)NCCCCCN1CCC(NC(=O)Nc2ccc(C(F)(F)F)cc2)CC1` stands at 94

For reference, reported Inhibition for `CNC(=O)NC1CCN(Cc2c(-c3cccs3)nc3ccccc3c2C(=O)N[C@@H](C)C2CCCCC2)CC1` stands at 99

For reference, reported Inhibition for `COc1ccc(-c2cccc(NC(=O)c3ccc(C#N)cc3)c2)cc1CNC(C)C.O=C(O)C(F)(F)F` stands at 100

For reference, reported Inhibition for `CN(C)CCOc1ccc(-c2cc(-c3ccc(Cl)c(O)c3)c(-c3ccnc(N)n3)o2)cc1` stands at 100

For reference, reported Inhibition for `O=C(Cn1c(CCc2cccc(F)c2F)nc(=O)c2ccccc21)N(CCN1CCCC1)Cc1ccc(-c2ccc(C(F)(F)F)cc2)cc1.O=C(O)C(O)C(O)C(=O)O` stands at 100

Attribution: ChEMBL document CHEMBL1157539
